# EXPERIMENTAL_DETAILS: C. albicans growth with fluconazole, confirmation, fluorescence, retest (AID 2467)
# Format: functional, cell-based
Calls of active or inactive are those of the source.

MOLECULE | EC50
C/N=c1\scc(-c2cccs2)n1/N=C/c1ccc(O)c(O)c1O | > 38 µM (not active)
Nc1nn2c(O)cc(-c3ccccc3)nc2c1N=Nc1ccc(S(N)(=O)=O)cc1 | > 38 µM (not active)
COc1ccc(NC(=O)NNC(=O)c2cc3ccccc3cc2O)cc1 | > 38 µM (not active)
Cc1ccc(-c2nnc(NC(=O)c3ccc([N+](=O)[O-])o3)o2)c(C)c1 | 1.85 µM (active)
Cc1ccc(C2=NNC3(CCOC(C)(C)C3)S2)cc1 (stereo not given) | > 38 µM (not active)

---

# EXPERIMENTAL_DETAILS: HEp-2 cell cytotoxicity, dose response, cytotoxicity control for RSV inhibitor project, HTS (AID 2410)
# Assay type: functional
# PARTICULARS: human respiratory syncytial virus
Active and inactive are the calls of the source.

ENTRY_SMILES | CC50
CC(C)c1ccc(/C=N/N2CCN(c3ccccn3)CC2)cc1 | 35.7 µM (active)
COCCNC(=O)c1cc(-c2ccc(-c3ccccc3)cc2)nc2ccccc12 | 15.2 µM (active)
CN(CCC#N)C(=O)c1cc2c(s1)-c1ccccc1SC2 | 28 µM (active)
O=C(c1cnn2c(-c3ccccc3)cc(-c3ccccc3)nc12)N1CCN(Cc2ccccc2)CC1 | 15.5 µM (active)

---

# System: INS1
# EXPERIMENTAL_DETAILS: beta cell apoptosis inhibitors, cytokine rescue, dose response, luminescence, retest (AID 449756);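 further: cell death triggered by IL-1 beta plus TNF-alpha plus IFN-gamma mixture; protective hits raise ATP signal compared with cytokine alone wells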
# Type: functional, cell-based
# PARTICULARS: Rattus norvegicus
Activity calls are given as the source filed them.
Outcome codes: active, inactive

MOLECULE | CLASS
O=C(Nc1ncnc2c1C(c1ccccc1)c1c(ccc3ccccc13)O2)c1ccccc1 (stereo unspecified) | active
CCC(=O)NC(c1cc(Cl)c2cccnc2c1O)C1CC1 (stereo unspecified) | active
CCC[N+]1(CC#CCC(c2ccccc2)c2ccccc2)CCCCC1 | active
COc1ccc(CCNC(=O)c2cc3c(=O)n4cccc(C)c4nc3n(Cc3ccco3)c2=N)cc1OC | active
CCCOc1ccc(C(=O)C(CN2CCOCC2)c2ccccc2)cc1 (stereo unspecified) | inactive
CCN(CC)S(=O)(=O)c1ccc(N/N=C/c2cc(OC)ccc2O)nc1 | active

---

# MEASURED_ON: UniProtKB Q06710
# Sequence (Q06710 whole entry): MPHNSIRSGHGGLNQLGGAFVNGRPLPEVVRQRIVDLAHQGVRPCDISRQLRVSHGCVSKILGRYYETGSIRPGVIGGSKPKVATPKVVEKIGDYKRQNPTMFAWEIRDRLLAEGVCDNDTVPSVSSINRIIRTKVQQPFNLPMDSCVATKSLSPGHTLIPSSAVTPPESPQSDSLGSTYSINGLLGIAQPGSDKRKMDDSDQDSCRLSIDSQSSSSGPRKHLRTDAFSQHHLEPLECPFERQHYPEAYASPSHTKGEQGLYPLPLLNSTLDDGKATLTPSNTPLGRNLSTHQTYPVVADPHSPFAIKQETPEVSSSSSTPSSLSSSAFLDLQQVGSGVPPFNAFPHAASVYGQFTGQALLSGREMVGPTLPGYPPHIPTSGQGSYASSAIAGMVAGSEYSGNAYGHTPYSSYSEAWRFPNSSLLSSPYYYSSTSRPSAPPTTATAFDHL
# EXPERIMENTAL_DETAILS: inhibitors of PAX8-driven TPO luciferase reporter, dose response, RMG-I cells, cherry-pick (AID 687027);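 further: luciferase reporter driven by Pax8 target thyroperoxidase promoter measured by SteadyGlo luminescence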
# Format: functional, cell-based
Calls of active or inactive are those of the source.
RESULT_TYPE: AC50

COMPOUND | RESULT
C=C1C(=O)[C@@]23[C@H](O)C[C@@H]4C(C)(C)CC[C@H](O)[C@@]4(C)[C@@H]2CC[C@@H]1[C@H]3O [KAMEBANIN] | 1.16 µM (active)
COc1ccc(-c2ccc3c(c2)[C@@H]2[C@@H](CCN2C(=O)NC2CCCCC2)[C@H](CO)N3C)cc1 | 10.7 µM (active)
Oc1c(Cl)cc(CN2CCOCC2)c2cccnc12 | 4.43 µM (active)
C[C@H](CO)N1C[C@H](C)[C@@H](CN(C)C(=O)NC2CCCCC2)Oc2cc(C#Cc3ccc(F)cc3)ccc2S1(=O)=O | 9.52 µM (active)
Cn1c(=O)[nH]c(=O)c2c1nc([N+](=O)[O-])n2Cc1ccccc1 | 3.81 µM (active)
C[C@@H]1CCCCO[C@H](CN(C)C(=O)NC2CCCCC2)[C@H](C)CN([C@@H](C)CO)C(=O)c2cc(NS(=O)(=O)c3ccc(Cl)cc3)ccc2O1 | 10.5 µM (active)
C[C@H]1CCCCO[C@H](CN(C)Cc2ccc(C(F)(F)F)cc2)[C@@H](C)CN([C@@H](C)CO)C(=O)c2cc(NC(=O)Cc3ccccc3)ccc2O1 | 7.6 µM (active)
COC(=O)C1=C(C(=O)OC)C2OC1c1cc3ccccc3cc12 | 5.41 µM (active)
Cc1ccc(NC(=O)c2ccc([N+](=O)[O-])s2)cc1S(=O)(=O)N1CCOCC1 | 3.94 µM (active)
O=C(NC1=CC(=O)c2ccccc2C1=O)c1ccccc1 | 4.43 µM (active)
C[C@@H]1CN([C@@H](C)CO)C(=O)c2cc(NC(=O)Nc3ccc(C(F)(F)F)cc3)ccc2O[C@@H](C)CCCCO[C@@H]1CN(C)CC1CCCCC1 | 3.9 µM (active)
